Tested on: Lolium rigidum (LOLRI)
Test: Herbicidal pre-emergence action, 320 g/ha (Table C2)
Format: in vivo
Conditions: visual grading after ca. 3 weeks vs untreated controls
measurement name: herbicidal effect LOLRI (%)
Write it as a number; the unit % goes unstated.

Task: Suppose we examine the compound Cc1nn(C)c(=O)c(Oc2ccccc2C(C)C)c1O [Example I-022] ; what herbicidal effect LOLRI value has been reported?
Result: 100

Task: Field entry: CCOC(=O)Oc1c(C)nn(C)c(=O)c1Oc1cc(F)ccc1C1CC1 [Example I-045]
Result: 90

Task: Field entry: Cc1nn(C)c(=O)c(Oc2cc(F)c(F)cc2C2CC2)c1O [Example I-101]
Result: 90

Task: Field entry: CC(=O)Oc1c(C)nn(C)c(=O)c1Oc1ccccc1C(F)(F)F [Example I-030]
Result: 90

Task: Field entry: CCOC(=O)Oc1c(C)nn(C)c(=O)c1Oc1cc(Cl)ccc1Cl [Example I-086]
Result: 90

---

Listed below: herbicidal effect STEME values for each entry.
Test system: Stellaria media (STEME)
Assay: Herbicidal pre-emergence action, 320 g/ha, STEME
Format: in vivo
Conditions: visual grading after ca. 3 weeks
Write it as a number; the unit % goes unstated.

CCOC(=O)Oc1c(C)nn(C)c(=O)c1Oc1cc(Cl)cc(Cl)c1Cl    90
Cc1nn(C)c(=O)c(Oc2ccccc2C#N)c1O    100
Cc1nn(C)c(=O)c(Oc2cc(Cl)cc(Cl)c2)c1O    100
Cc1nn(C)c(=O)c(Oc2cccc(F)c2C2CC2)c1O    90
CC(=O)Oc1c(C)nn(C)c(=O)c1Oc1ccccc1C(F)(F)F    100
CCOC(=O)Oc1c(C)nn(C)c(=O)c1Oc1ccccc1C1CC1    90
Cc1nn(C)c(=O)c(Oc2ccccc2Br)c1O    90
Cc1nn(C)c(=O)c(Oc2cc(Cl)cc(Cl)c2Cl)c1O    100

Task: Requested read-out herbicidal effect STEME, target or system Stellaria media (STEME), entry CCOC(=O)Oc1c(C)nn(C)c(=O)c1Oc1cc(F)ccc1C1CC1
Result: 90

Task: Field entry: Cc1nn(C)c(=O)c(Oc2cccc(F)c2Cl)c1O
Result: 100

Task: Field entry: Cc1nn(C)c(=O)c(Oc2cc(Cl)ccc2Cl)c1OC(=O)C(C)C
Result: 90

---

System: Stellaria media (STEME)
Test: Herbicidal pre-emergence action, 1280 g/ha (Table A9)
Format: in vivo
Conditions: visual grading after ca. 3 weeks vs untreated controls
Listed below: herbicidal effect STEME values for each entry.
Note: state the figure and append the unit.

CC(=O)Oc1c(C)nn(C)c(=O)c1Oc1ccccc1C(F)(F)F    100%
Cc1nn(C)c(=O)c(Oc2ccccc2Cl)c1O    100%
Cc1nn(C)c(=O)c(Oc2cc(Cl)cc(Cl)c2)c1O    100%
Cc1nn(C)c(=O)c(Oc2cc(Cl)ccc2Cl)c1OC(=O)C(C)C    100%
Cc1nn(C)c(=O)c(Oc2ccc(Cl)cc2Cl)c1OC(=O)C(C)(C)C    100%

Task: Suppose we examine the compound COc1ccccc1Oc1c(O)c(C)nn(C)c1=O ; what herbicidal effect STEME value has been reported?
Result: 90%

Task: Field entry: CCOC(=O)Oc1c(C)nn(C)c(=O)c1Oc1cc(Cl)ccc1Cl
Result: 100%

Task: Field entry: CCOC(=O)Oc1c(C)nn(C)c(=O)c1Oc1cc(Cl)cc(Cl)c1Cl
Result: 100%

Task: Field entry: CCOC(=O)Oc1c(C)nn(C)c(=O)c1Oc1cc(F)ccc1Br
Result: 90%

Task: Field entry: CCOC(=O)Oc1c(C)nn(C)c(=O)c1Oc1cc(F)ccc1C1CC1
Result: 100%

Task: Field entry: CCOC(=O)Oc1c(C)nn(C)c(=O)c1Oc1ccc(Cl)cc1C1CC1
Result: 100%

Task: Field entry: CC(=O)Oc1c(C)nn(C)c(=O)c1Oc1ccccc1OC(F)F
Result: 90%

Task: Field entry: Cc1nn(C)c(=O)c(Oc2ccccc2C(C)C)c1O
Result: 100%

Task: Field entry: Cc1nn(C)c(=O)c(Oc2cc(Cl)cc(Cl)c2Cl)c1O
Result: 100%
